Entries and their cell viability, IGR37 XP, 1μΜ values follow.
- Tested on: IGR37-XP cells (Vemurafenib-resistant)
- ASSAY SUMMARY: Kinase inhibitor library screening, PrestoBlue cell viability, 1 or 10 μM, 72 h
- RECORDED CONDITIONS: IGR37 XP; 1μΜ; 72 h; in %

| MOLECULE | cell viability, IGR37 XP, 1μΜ |
| --- | --- |
| CCO.N#CC(=C(/N)Sc1ccccc1N)/C(C#N)=C(\N)Sc1ccccc1N [U0126-EtOH] | 92.3 |
| CN1CCN(c2cccc(Nc3nc4c(-c5ccc(S(C)(=O)=O)cc5)cccn4n3)c2)CC1 [CEP33779] | 90.4 |
| O=c1cc(N2CCOCC2)oc2c(-c3cccc4c3sc3ccccc34)cccc12 [NU7441(KU-57788)] | 99.7 |
| CCc1cc(Nc2nccc(-c3c(-c4ccc(OC)c(C(=O)Nc5c(F)cccc5F)c4)nc4ccccn34)n2)c(OC)cc1N1CCC(N2CCN(S(C)(=O)=O)CC2)CC1 [GSK1904529A] | 98.9 |
| CN1CCN(c2ccc3nc(-c4c(N)c5c(F)cccc5[nH]c4=O)[nH]c3c2)CC1 [Dovitinib (TKI-258)] | 102.6 |
| CC(C)(C)c1cc(/C=C(\C#N)C(N)=S)cc(C(C)(C)C)c1O [Tyrphostin AG 879 (AG 879)] | 90.9 |
| Cc1cnc(Nc2ccc(N3CCN(C)CC3)cc2)nc1Nc1cccc(S(=O)(=O)NC(C)(C)C)c1 [TG101209] | 82.7 |
| COc1cc2ncnc(Nc3ccc(O)c(Br)c3)c2cc1OC [WHI-P154] | 91.6 |
| CCOc1cc2ncc(C#N)c(Nc3ccc(OCc4ccccn4)c(Cl)c3)c2cc1NC(=O)/C=C/CN(C)C [Neratinib (HKI-272)] | 75.0 |
| COc1cc2ncnc(Nc3cccc(Cl)c3)c2cc1OC [AG-1478 (Tyrphostin AG-1478)] | 76.6 |
| Cc1c(NC(=O)OC[C@@H]2COCCN2)cn2ncnc(Nc3ccc4c(cnn4Cc4cccc(F)c4)c3)c12 [BMS-599626 (AC480)] | 96.7 |
| C=CC(=O)Nc1cc2c(Nc3ccc(F)c(Cl)c3)ncnc2cc1OCCCN1CCOCC1 [CI-1033 (Canertinib)] | 99.0 |
| C=CC(=O)Nc1cccc(Oc2nc(Nc3ccc(N4CCN(C)CC4)cc3)ncc2Cl)c1 [WZ3146] | 73.3 |
| CN(c1ncccc1CNc1nc(Nc2ccc3c(c2)CC(=O)N3)ncc1C(F)(F)F)S(C)(=O)=O [PF-00562271] | 82.7 |
| COc1cc2ncnc(Nc3cccc(Br)c3)c2cc1OC.Cl [PD153035 HCl] | 82.2 |
| O=C(NOCC1CC1)c1ccc(F)c(F)c1Nc1ccc(I)cc1Cl [CI-1040 (PD184352)] | 81.9 |
| CN(C)Cc1cccc(N/C(=C2\C(=O)Nc3cc(C(=O)N(C)C)ccc32)c2ccccc2)c1 [BIX 02189] | 96.6 |
| COc1cc2ncnc(Nc3ccc(F)c(Cl)c3)c2cc1NC(=O)/C=C/CN1CCCCC1 [Dacomitinib (PF299804,PF-00299804)] | 80.1 |
| CCOc1cc2ncc(C#N)c(Nc3ccc(F)c(Cl)c3)c2cc1NC(=O)/C=C/CN(C)C [Pelitinib (EKB-569)] | 97.8 |
| CCC[C@H](NC(=O)/C(C#N)=C/c1cccc(Br)n1)c1ccccc1 [WP1130, reference compound] | 99.1 |
| O=C1NC(=O)C(c2ccccc2[N+](=O)[O-])=C1Nc1ccc(O)c(Cl)c1 [SB 415286] | 98.9 |
| CNC(=O)c1c(F)cccc1Nc1nc(Nc2cc3c(cc2OC)CCN3C(=O)CN(C)C)nc2[nH]ccc12 [GSK1838705A, reference compound] | 42.8 |
| CC(C)(C)c1cc(C=C(C#N)C#N)cc(Br)c1O [AG-1024] | 95.7 |
| CCN1CCN(Cc2ccc(-c3cc4c(N[C@H](C)c5ccccc5)ncnc4[nH]3)cc2)CC1 [AEE788 (NVP-AEE788)] | 82.4 |
| C[C@@H]1CCN(C(=O)CC#N)C[C@@H]1N(C)c1ncnc2[nH]ccc12 [Tofacitinib (CP-690550, Tasocitinib)] | 96.7 |
| C#Cc1cccc(Nc2ncnc3cc(OCCOC)c(OCCO)cc23)c1 [OSI-420 (Desmethyl Erlotinib)] | 83.7 |
| C=CC(=O)Nc1cccc(Sc2nc(Nc3ccc(N4CCN(C)CC4)cc3)ncc2Cl)c1 [WZ8040] | 79.2 |
| CC(O)C(=O)O.CC(O)C(=O)O.CN1CCN(c2ccc3nc(-c4c(N)c5c(F)cccc5[nH]c4=O)[nH]c3c2)CC1 | 106.9 |
| Nc1cccc(-c2cc3c(Oc4cccc(O)c4)ncnc3[nH]2)c1 [TWS119] | 80.5 |
| Nc1ncnc2c1c(-c1cccc(OCc3ccccc3)c1)cn2C1CC(CN2CCCC2)C1 (stereo not shown) [NVP-ADW742] | 78.5 |
| C#Cc1cccc(Nc2ncnc3cc(OCCOC)c(OCCO)cc23)c1 [Desmethyl Erlotinib (CP-473420)] | 80.3 |

Value source: paper PMC6364417
